Ref: patent US7771727B2

The following molecules are shown together with reported half-life values.
test: in vitro; settings: rat, serum
Numbered stars: 1 amine (or outer) side, 2 acyl side, 3 side chain; on linkers, the order of the positions; unused ones are H or OH. Bridge positions count the residues as written; N and C are the ends. Square brackets hold non-standard residues; d marks the D form. Peptide text beside a SMILES is read from it. * marks the point of attachment. Camptothecin(20S-OCO) = CC[C@@]1(OC(=O)*)C(=O)OCc2c1cc1n(c2=O)Cc2cc3ccccc3nc2-1; X1 = COc1ccc(/C=C\c2cc(OC)c(OC)c(OC)c2)cc1OC(=O)*; Gly(N-2-aminoethyl) = NCCNCC(=O)O; X2 = CN(C)CCN(CC(=O)[*:2])[*:1]; Nle = CCCC[C@H](N)C(=O)O
The figure you give is taken to be in h; do not add the unit.

Study these solved cases before continuing.
>  <MOLECULE>
CCCC[C@H](NC(=O)[C@@H](CO)NC(=O)CN(CCN)C(=O)O[C@]1(CC)C(=O)OCc2c1cc1n(c2=O)Cc2cc3ccccc3nc2-1)C(=O)N[C@H](Cc1ccc(O)cc1)C(=O)N[C@H](CO)C(=O)N[C@H]1CSSC[C@@H](C(=O)N[C@H](C(N)=O)[C@@H](C)O)NC(=O)[C@H]([C@@H](C)O)NC(=O)[C@H](CCCCN)NC(=O)[C@@H](Cc2c[nH]c3ccccc23)NC(=O)[C@H](Cc2ccccc2)NC1=O [Compound 1] ({Camptothecin(20S-OCO)}-[Gly(N-2-aminoethyl)][dS][Nle][dY][dS]CF[dW]KTCT-NH2; disulfide 6-11)

>  <half-life / h>
106

$$$$
>  <MOLECULE>
CCCC[C@H](NC(=O)[C@@H](CO)NC(=O)CN(CCN(C)C)C(=O)O[C@]1(CC)C(=O)OCc2c1cc1n(c2=O)Cc2cc3ccccc3nc2-1)C(=O)N[C@H](Cc1ccc(O)cc1)C(=O)N[C@H](CO)C(=O)N[C@H]1CSSC[C@@H](C(=O)N[C@H](C(N)=O)[C@@H](C)O)NC(=O)[C@H]([C@@H](C)O)NC(=O)[C@H](CCCCN)NC(=O)[C@@H](Cc2c[nH]c3ccccc23)NC(=O)[C@H](Cc2ccccc2)NC1=O [Compound 3] ({Camptothecin(20S-OCO)}-[X2][dS][Nle][dY][dS]CF[dW]KTCT-NH2; disulfide 6-11)

>  <half-life / h>
59

$$$$

Please give the measured half-life for this molecule: CCCC[C@H](NC(=O)[C@@H](CO)NC(=O)CN(CCN)C(=O)Oc1cc(/C=C\c2cc(OC)c(OC)c(OC)c2)ccc1OC)C(=O)N[C@H](Cc1ccc(O)cc1)C(=O)N[C@H](CO)C(=O)N[C@H]1CSSC[C@@H](C(=O)N[C@H](C(N)=O)[C@@H](C)O)NC(=O)[C@H]([C@@H](C)O)NC(=O)[C@H](CCCCN)NC(=O)[C@@H](Cc2c[nH]c3ccccc23)NC(=O)[C@H](Cc2ccccc2)NC1=O [Compound 6] (X1-[Gly(N-2-aminoethyl)][dS][Nle][dY][dS]CF[dW]KTCT-NH2; disulfide 6-11) 4
